Data provenance is the SangsterLogP compilation.

measuredProperty: logP
Give bare numbers.

The following compounds have reported results that may help.
> print(dat)
                           substancesmiles  measuredproperty  testvalue
1  CNc1nnc(-c2ccc(OC(F)(F)F)cc2)c(=O)[nH]1              logP       1.86
2       CNc1nnc(-c2cc(Cl)cc(Cl)c2)c(=O)n1N              logP       1.91
3                CNc1nnc(C(C)(C)C)c(=O)n1N              logP       0.52
4                  CSc1nnc(CC(C)C)c(=O)n1N              logP       1.53
5                     CCCc1nnc(SC)n(N)c1=O              logP       1.19

Provide the reported logP of each entry below, same order.
1. CSc1nnc(-c2cc(Cl)cc(Cl)c2)c(=O)n1N
2. Cn1c(S)nnc(-c2cc(Cl)cc(Cl)c2)c1=O

1: 3.02; 2: 3.43

###

Label 1.0 when logP is at or above 2; anything below gets 0.0.

Is it the case that CSc1nnc(C)c(=O)n1N has logP reaching or exceeding 2?
0.0

And Cc1nnc(C(C)(C)C)c(=O)n1N ?
0.0

And CSc1nnc(-c2ccc(OC(F)(F)F)cc2)c(=O)[nH]1 ?
1.0

And CSc1nnc(C2CCOCC2)c(=O)n1N ?
0.0

And Cn1c(S)nnc(-c2ccc(F)cc2)c1=O ?
1.0

And CN(C)c1nnc(C(C)(C)C)c(=O)n1C ?
0.0

And COc1nnc(C(C)(C)C)c(=O)n1N ?
0.0

###

Task for the reader: assign each of the following compounds its reported logP.
Give bare numbers.

> print(dat)
                            substancesmiles  testvalue
1  CNc1nnc(-c2ccc(OC(F)(F)F)c(Cl)c2)c(=O)n1C       2.35
2                    CSc1nnc(C(C)C)c(=O)n1N       1.23
3                 CSc1nnc(C2CCCCC2)c(=O)n1N       2.09

Provide the reported logP of each entry below, same order.
1. CCOc1cccc(-c2nnc(C)n(NC)c2=O)c1
2. Nn1c(S)nnc(-c2cc(Cl)cc(Cl)c2)c1=O

[1.91, 2.67]

Provide the reported logP of each entry below, same order.
1. CCOc1cccc(-c2nnc(S)n(C)c2=O)c1
2. CNc1nnc(-c2ccc(F)c(Cl)c2)c(=O)n1C

2.67
1.6
